FYI, the data here is from ChEMBL document CHEMBL1140411.

Observed Ki for UniProt Q8II92, reported per entry below.
Sequence (Q8II92 whole entry): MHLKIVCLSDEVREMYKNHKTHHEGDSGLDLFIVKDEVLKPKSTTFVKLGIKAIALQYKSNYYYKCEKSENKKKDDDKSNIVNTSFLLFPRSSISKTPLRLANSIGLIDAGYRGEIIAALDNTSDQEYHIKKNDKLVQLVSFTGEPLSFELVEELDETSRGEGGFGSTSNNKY
ENDPOINT_NAME: Ki

> print(dat)
                                    molecule  endpoint.name   observed
 1  NS(=O)(=O)NC(=O)OC[C@H]1O[C@@H](n2ccc(=O)[nH]c2=O)C[C@@H]1O             Ki     468 µM
 2  O=c1ccn(C2CC(O)C(CNC(c3ccccc3)(c3ccccc3)c3ccccc3)O2)c(=O)[nH]1 (configuration not stated)             Ki     0.2 µM
 3  NS(=O)(=O)OC[C@H]1O[C@@H](n2ccc(=O)[nH]c2=O)C[C@@H]1O             Ki  > 1000 µM
 4  O=c1ccn(C2C=CC(COP(=O)(Oc3ccccc3)Oc3ccccc3)O2)c(=O)[nH]1 (configuration not stated)             Ki      99 µM
 5  CC(C)(C)[Si](C)(C)O[C@H]1C[C@H](n2ccc(=O)[nH]c2=O)O[C@@H]1COS(N)(=O)=O             Ki      88 µM
 6  O=c1ccn(C2CC(F)C(CO[Si](c3ccccc3)(c3ccccc3)c3ccccc3)O2)c(=O)[nH]1 (configuration not stated)             Ki     975 µM
 7  O=c1ccn(C2CC(F)C(CNC(c3ccccc3)(c3ccccc3)c3ccccc3)O2)c(=O)[nH]1 (configuration not stated)             Ki      12 µM
 8  CC(C)(C)[Si](C)(C)O[C@H]1C[C@H](n2ccc(=O)[nH]c2=O)O[C@@H]1COP(=O)(Oc1ccccc1)Oc1ccccc1             Ki     597 µM
 9  CC(C)(C)[Si](C)(C)O[C@H]1C[C@H](n2ccc(=O)[nH]c2=O)O[C@@H]1COC(=O)NS(N)(=O)=O             Ki     244 µM
10  O=c1ccn([C@H]2C=C[C@@H](CO)O2)c(=O)[nH]1             Ki     298 µM
11  O=C(NCC1OC(n2ccc(=O)[nH]c2=O)CC1O)C12CC3CC(CC(C3)C1)C2 (configuration not stated)             Ki     426 µM
12  O=c1ccn(C2CC(O)C(CNCc3ccccc3)O2)c(=O)[nH]1 (configuration not stated)             Ki     111 µM
13  CC(C)(C)[Si](C)(C)O[C@H]1C[C@H](n2ccc(=O)[nH]c2=O)O[C@@H]1COC(c1ccccc1)(c1ccccc1)c1ccccc1             Ki     515 µM
14  CCOP(=O)(CC(=O)OC[C@H]1O[C@@H](n2ccc(=O)[nH]c2=O)C[C@@H]1O[Si](C)(C)C(C)(C)C)OCC             Ki     217 µM
15  CC(C)[Si](OC[C@H]1O[C@@H](n2ccc(=O)[nH]c2=O)C[C@@H]1O)(C(C)C)C(C)C             Ki     227 µM
16  O=c1ccn(C2C=CC(CO[Si](c3ccccc3)(c3ccccc3)c3ccccc3)O2)c(=O)[nH]1 (configuration not stated)             Ki     1.3 µM
17  O=c1ccn(C2CC(F)C(COC(c3ccccc3)(c3ccccc3)c3ccccc3)O2)c(=O)[nH]1 (configuration not stated)             Ki       5 µM

###

tested on: Trypanosoma brucei rhodesiense; test: Inhibitory constant against Trypanosoma brucei rhodesiense upon incubation with the compound at 37 degrees C under a 5% CO2 atmosphere for 72 hours; format: functional, organism-based
pIC50: −log10 of the molar value.
Below, each entry is listed with its recorded pIC50.
ENDPOINT_NAME: pIC50

> print(dat)
                                   compound  endpoint.name  comparison.operator  observed
1  O=c1ccn(C2CC(O)C(CNCc3ccccc3)O2)c(=O)[nH]1 (stereo not given)          pIC50                    =      4.77
2  NS(=O)(=O)OC[C@H]1O[C@@H](n2ccc(=O)[nH]c2=O)C[C@@H]1O          pIC50                    =      3.84
3  O=c1ccn([C@H]2C[C@H](O)[C@@H](COP(=O)(Oc3ccccc3)Oc3ccccc3)O2)c(=O)[nH]1          pIC50                    =      4.28
4  NS(=O)(=O)OCC1C=CC(n2ccc(=O)[nH]c2=O)O1 (stereo not given)          pIC50                    <      3.51
5  O=c1ccn([C@H]2C[C@H](O)[C@@H](CO[Si](c3ccccc3)(c3ccccc3)c3ccccc3)O2)c(=O)[nH]1          pIC50                    =      4.82

###

test system: Plasmodium falciparum; test: In vitro inhibitory activity against Plasmodium falciparum as [3H]hypoxanthine (50 uL) incorporation at 37C; assay type: functional, organism-based
ENDPOINT_NAME: log10(IC50) (log10 of the value in µM)

> print(dat)
                                   compound  endpoint.name  observed
1  CC(C)(C)[Si](C)(C)OC1CC(n2ccc(=O)[nH]c2=O)OC1CNP(=O)(Oc1ccccc1)Oc1ccccc1 (stereo unspecified)    log10(IC50)      0.60
2  O=c1ccn(C2CC(F)C(CO[Si](c3ccccc3)(c3ccccc3)c3ccccc3)O2)c(=O)[nH]1 (stereo unspecified)    log10(IC50)      0.00
3  CC(C)(C)[Si](C)(C)OC1CC(n2ccc(=O)[nH]c2=O)OC1CNC(c1ccccc1)(c1ccccc1)c1ccccc1 (stereo unspecified)    log10(IC50)      0.26
4  CCOP(=O)(CC(=O)OC[C@H]1O[C@@H](n2ccc(=O)[nH]c2=O)C[C@@H]1O)OCC    log10(IC50)      1.99
5  O=c1ccn([C@H]2C=C[C@@H](CO)O2)c(=O)[nH]1    log10(IC50)      2.33
6  CC(C)(C)[Si](OCC1C=CC(n2ccc(=O)[nH]c2=O)O1)(c1ccccc1)c1ccccc1 (stereo unspecified)    log10(IC50)      0.48
7  CC(C)(C)[Si](C)(C)O[C@H]1C[C@H](n2ccc(=O)[nH]c2=O)O[C@@H]1COC(=O)NS(N)(=O)=O    log10(IC50)      1.57
8  O=c1ccn(C2CC(F)C(CNC(c3ccccc3)(c3ccccc3)c3ccccc3)O2)c(=O)[nH]1 (stereo unspecified)    log10(IC50)      0.72

###

test system: Trypanosoma brucei rhodesiense; experiment: Inhibitory constant against Trypanosoma brucei rhodesiense upon incubation with the compound at 37 degrees C under a 5% CO2 atmosphere for 72 hours; type: functional, organism-based
pIC50: −log10 of the molar value.
ENDPOINT_NAME: pIC50

> print(dat)
                                    compound  endpoint.name  comparison.operator  observed
 1  O=c1ccn(C2C=CC(COP(=O)(Oc3ccccc3)Oc3ccccc3)O2)c(=O)[nH]1 (stereo unspecified)          pIC50                    =      4.17
 2  CC(=O)NCC1OC(n2ccc(=O)[nH]c2=O)CC1O (stereo unspecified)          pIC50                    =      3.71
 3  CC(C)(C)[Si](C)(C)OCC1OC(n2ccc(=O)[nH]c2=O)CC1F (stereo unspecified)          pIC50                    =      4.23
 4  CC(C)(C)[Si](C)(C)O[C@H]1C[C@H](n2ccc(=O)[nH]c2=O)O[C@@H]1CO          pIC50                    =      4.08
 5  CC(C)(C)[Si](C)(C)O[C@H]1C[C@H](n2ccc(=O)[nH]c2=O)O[C@@H]1COC(c1ccccc1)(c1ccccc1)c1ccccc1          pIC50                    =      4.60
 6  CC(C)(C)[Si](C)(C)OC1CC(n2ccc(=O)[nH]c2=O)OC1CNP(=O)(Oc1ccccc1)Oc1ccccc1 (stereo unspecified)          pIC50                    =      4.55
 7  CCOP(=O)(OCC)OC[C@H]1O[C@@H](n2ccc(=O)[nH]c2=O)C[C@@H]1O          pIC50                    =      4.43
 8  CC(C)(C)[Si](C)(C)O[C@H]1C[C@H](n2ccc(=O)[nH]c2=O)O[C@@H]1COP(=O)(Oc1ccccc1)Oc1ccccc1          pIC50                    =      4.92
 9  CC(C)(C)[Si](C)(C)O[C@H]1C[C@H](n2ccc(=O)[nH]c2=O)O[C@@H]1COS(N)(=O)=O          pIC50                    =      3.98
10  CC(C)(C)[Si](OC[C@H]1O[C@@H](n2ccc(=O)[nH]c2=O)C[C@@H]1O)(c1ccccc1)c1ccccc1          pIC50                    =      5.52
11  O=c1ccn(C2CC(O)C(CNP(=O)(Oc3ccccc3)Oc3ccccc3)O2)c(=O)[nH]1 (stereo unspecified)          pIC50                    <      3.71
12  O=C(OC[C@H]1O[C@@H](n2ccc(=O)[nH]c2=O)C[C@@H]1O)c1ccccc1          pIC50                    =      3.93
13  CC(C)[Si](OC[C@H]1O[C@@H](n2ccc(=O)[nH]c2=O)C[C@@H]1O)(C(C)C)C(C)C          pIC50                    =      5.10
14  O=C(NCC1OC(n2ccc(=O)[nH]c2=O)CC1O)c1ccccc1 (stereo unspecified)          pIC50                    =      3.92
15  CC(C)(C)[Si](C)(C)OCC1C=CC(n2ccc(=O)[nH]c2=O)O1 (stereo unspecified)          pIC50                    =      4.14
16  O=c1ccn([C@H]2C[C@H](O)[C@@H](COC(c3ccccc3)(c3ccccc3)c3ccccc3)O2)c(=O)[nH]1          pIC50                    =      4.62
17  NS(=O)(=O)NC(=O)OCC1C=CC(n2ccc(=O)[nH]c2=O)O1 (stereo unspecified)          pIC50                    =      4.40
18  CCOP(=O)(CC(=O)OC[C@H]1O[C@@H](n2ccc(=O)[nH]c2=O)C[C@@H]1O[Si](C)(C)C(C)(C)C)OCC          pIC50                    =      4.40
19  O=c1ccn(C2C=CC(CO[Si](c3ccccc3)(c3ccccc3)c3ccccc3)O2)c(=O)[nH]1 (stereo unspecified)          pIC50                    =      5.80
20  O=c1ccn([C@H]2C[C@H](F)[C@@H](CO)O2)c(=O)[nH]1          pIC50                    =      4.00
21  O=c1ccn([C@H]2C=C[C@@H](CO)O2)c(=O)[nH]1          pIC50                    =      4.14
22  CCOP(=O)(OCC)OC[C@H]1O[C@@H](n2ccc(=O)[nH]c2=O)C[C@@H]1O[Si](C)(C)C(C)(C)C          pIC50                    =      4.46
23  O=c1ccn(C2CC(F)C(COC(c3ccccc3)(c3ccccc3)c3ccccc3)O2)c(=O)[nH]1 (stereo unspecified)          pIC50                    =      4.33
24  CCCCC(=O)NCC1OC(n2ccc(=O)[nH]c2=O)CC1O (stereo unspecified)          pIC50                    =      3.83
25  O=c1ccn(C2CC(O)C(CNC(c3ccccc3)(c3ccccc3)c3ccccc3)O2)c(=O)[nH]1 (stereo unspecified)          pIC50                    =      4.32
26  O=c1ccn(C2CC(F)C(CO[Si](c3ccccc3)(c3ccccc3)c3ccccc3)O2)c(=O)[nH]1 (stereo unspecified)          pIC50                    =      5.35
27  O=c1ccn(C2C=CC(COC(c3ccccc3)(c3ccccc3)c3ccccc3)O2)c(=O)[nH]1 (stereo unspecified)          pIC50                    =      4.26
28  Cc1ccc(S(=O)(=O)NCC2OC(n3ccc(=O)[nH]c3=O)CC2O)cc1 (stereo unspecified)          pIC50                    =      3.99
29  CC(C)(C)[Si](OCC1OC(n2ccc(=O)[nH]c2=O)CC1F)(c1ccccc1)c1ccccc1 (stereo unspecified)          pIC50                    =      4.54
30  CCOP(=O)(CC(=O)OC[C@H]1O[C@@H](n2ccc(=O)[nH]c2=O)C[C@@H]1O)OCC          pIC50                    =      3.91
31  O=C(NCC1OC(n2ccc(=O)[nH]c2=O)CC1O)C12CC3CC(CC(C3)C1)C2 (stereo unspecified)          pIC50                    <      3.64
32  Cc1ccc(S(=O)(=O)OC[C@H]2O[C@@H](n3ccc(=O)[nH]c3=O)C[C@@H]2O)cc1          pIC50                    =      4.36
33  CCCCCCCCCCCCCCCC(=O)OCC1C=CC(n2ccc(=O)[nH]c2=O)O1 (stereo unspecified)          pIC50                    =      3.95
34  CC(C)(C)[Si](OCC1C=CC(n2ccc(=O)[nH]c2=O)O1)(c1ccccc1)c1ccccc1 (stereo unspecified)          pIC50                    =      4.26
35  CC(=O)OC[C@H]1O[C@@H](n2ccc(=O)[nH]c2=O)C[C@@H]1O          pIC50                    =      4.89
36  CC(C)(C)[Si](C)(C)O[C@H]1C[C@H](n2ccc(=O)[nH]c2=O)O[C@@H]1COC(=O)NS(N)(=O)=O          pIC50                    =      4.92
